- target_system: Ba/F3 stable cells (Homo sapiens, UniProt P00533, T790M/L858R, cells depend on it)
- Construct: EC50 Ba/F3-EGFR L858R-T790M; other: Ba/F3-EGFR L858R-T790M cells, 72 h, CCK-8
- Sequence (P00533 whole entry T790M/L858R): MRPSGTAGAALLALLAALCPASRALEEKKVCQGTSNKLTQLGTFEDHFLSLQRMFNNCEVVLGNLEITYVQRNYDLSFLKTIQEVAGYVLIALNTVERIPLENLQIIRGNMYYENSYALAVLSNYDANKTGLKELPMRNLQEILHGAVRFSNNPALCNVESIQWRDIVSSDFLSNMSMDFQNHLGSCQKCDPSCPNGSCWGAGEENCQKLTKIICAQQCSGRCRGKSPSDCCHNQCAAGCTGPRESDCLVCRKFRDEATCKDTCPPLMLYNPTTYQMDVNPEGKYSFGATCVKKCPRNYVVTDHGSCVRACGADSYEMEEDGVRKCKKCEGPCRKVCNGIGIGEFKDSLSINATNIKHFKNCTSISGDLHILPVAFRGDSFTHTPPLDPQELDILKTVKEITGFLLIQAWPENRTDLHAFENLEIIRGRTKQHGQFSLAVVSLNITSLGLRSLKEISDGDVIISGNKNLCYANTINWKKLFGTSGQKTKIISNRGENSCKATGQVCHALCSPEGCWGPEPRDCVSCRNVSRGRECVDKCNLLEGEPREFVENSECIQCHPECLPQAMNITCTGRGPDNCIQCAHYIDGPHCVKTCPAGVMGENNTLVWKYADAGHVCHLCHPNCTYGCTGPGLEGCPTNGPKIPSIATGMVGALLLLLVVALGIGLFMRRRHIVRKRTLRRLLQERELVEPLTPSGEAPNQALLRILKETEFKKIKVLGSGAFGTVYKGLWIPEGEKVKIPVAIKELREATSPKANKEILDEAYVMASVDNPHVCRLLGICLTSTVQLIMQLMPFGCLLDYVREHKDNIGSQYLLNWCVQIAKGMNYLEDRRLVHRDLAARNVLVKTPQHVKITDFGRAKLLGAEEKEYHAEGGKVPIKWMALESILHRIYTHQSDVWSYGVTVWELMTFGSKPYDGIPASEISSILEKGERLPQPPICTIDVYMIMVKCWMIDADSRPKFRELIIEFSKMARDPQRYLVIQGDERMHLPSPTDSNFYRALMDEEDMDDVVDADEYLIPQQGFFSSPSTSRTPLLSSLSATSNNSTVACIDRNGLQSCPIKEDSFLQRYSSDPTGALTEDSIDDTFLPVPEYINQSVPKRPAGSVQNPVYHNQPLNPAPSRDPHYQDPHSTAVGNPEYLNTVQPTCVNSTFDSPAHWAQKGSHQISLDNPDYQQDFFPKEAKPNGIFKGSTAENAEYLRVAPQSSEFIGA
- assay_details: EC50 assay: Ba/F3 stable cell proliferation (CCK-8, 72 h)
- condition_info: Ba/F3-EGFR L858R-T790M cells
This section presents compounds with their documented EC50 values.
result_type: EC50

In [3]: df
Out[3]:
                                   compound                             target_system  recorded_result
0  C=CC(=O)N1CCC(Oc2cc3c(Nc4ccc(Cl)c5ccccc45)ncnc3cc2OC)CC1  Ba/F3 stable cells (Homo sapiens, UniProt P00533, T790M/L858R, cells depend on it)         ≤ 200 nM
1  C=CC(=O)N1CCC(Oc2cc3c(Nc4cnc5ccccc5c4)ncnc3cc2OC)CC1  Ba/F3 stable cells (Homo sapiens, UniProt P00533, T790M/L858R, cells depend on it)   200 to 1000 nM
2  C=CC(=O)N1CCC(c2cc3c(Nc4ccc(Cl)c(Cl)c4F)ncnc3cc2OC)C1 (stereo not drawn)  Ba/F3 stable cells (Homo sapiens, UniProt P00533, T790M/L858R, cells depend on it)   200 to 1000 nM

---

- target_system: Ba/F3 stable cells (Homo sapiens, UniProt P04626, DUP772-775, cells depend on it)
- Construct: EC50 Ba/F3-HER2 A775-G776insYVMA; other: Ba/F3-HER2 A775-G776insYVMA cells, 72 h, CCK-8
- Sequence (P04626 with tags, fused parts or gaps DUP772-775): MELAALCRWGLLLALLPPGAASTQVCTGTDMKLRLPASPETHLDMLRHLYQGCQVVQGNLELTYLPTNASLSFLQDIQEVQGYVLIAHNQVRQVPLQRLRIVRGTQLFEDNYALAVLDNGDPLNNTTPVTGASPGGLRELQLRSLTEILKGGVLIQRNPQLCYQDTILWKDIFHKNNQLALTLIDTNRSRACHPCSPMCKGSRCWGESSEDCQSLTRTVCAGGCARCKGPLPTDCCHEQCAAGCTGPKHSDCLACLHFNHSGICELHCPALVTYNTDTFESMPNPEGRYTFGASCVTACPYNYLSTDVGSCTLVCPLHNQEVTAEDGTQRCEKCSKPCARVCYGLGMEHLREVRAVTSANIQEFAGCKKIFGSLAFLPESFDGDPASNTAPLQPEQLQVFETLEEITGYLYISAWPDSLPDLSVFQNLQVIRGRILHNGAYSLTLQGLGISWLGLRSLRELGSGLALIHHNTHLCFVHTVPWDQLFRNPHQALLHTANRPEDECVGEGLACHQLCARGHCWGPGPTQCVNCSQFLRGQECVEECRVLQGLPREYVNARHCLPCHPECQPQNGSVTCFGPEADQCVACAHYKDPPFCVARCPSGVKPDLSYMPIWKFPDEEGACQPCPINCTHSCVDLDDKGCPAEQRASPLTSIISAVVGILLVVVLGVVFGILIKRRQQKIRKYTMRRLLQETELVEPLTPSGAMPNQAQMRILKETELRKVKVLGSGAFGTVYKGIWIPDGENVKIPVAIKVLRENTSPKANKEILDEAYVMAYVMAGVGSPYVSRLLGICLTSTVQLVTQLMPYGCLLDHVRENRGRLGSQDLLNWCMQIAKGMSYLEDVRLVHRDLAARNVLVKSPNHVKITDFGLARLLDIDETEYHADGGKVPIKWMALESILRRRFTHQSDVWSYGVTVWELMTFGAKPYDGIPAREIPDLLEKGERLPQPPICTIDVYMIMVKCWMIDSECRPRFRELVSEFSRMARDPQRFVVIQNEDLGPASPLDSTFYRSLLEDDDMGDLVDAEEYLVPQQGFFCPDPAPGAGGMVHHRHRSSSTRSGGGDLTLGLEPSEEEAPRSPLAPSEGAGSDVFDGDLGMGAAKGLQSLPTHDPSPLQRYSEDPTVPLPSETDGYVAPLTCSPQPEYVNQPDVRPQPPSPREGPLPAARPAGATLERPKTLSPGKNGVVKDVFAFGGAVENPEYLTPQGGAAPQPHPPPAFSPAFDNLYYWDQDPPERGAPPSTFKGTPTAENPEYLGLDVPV
- assay_details: EC50 assay: Ba/F3 stable cell proliferation (CCK-8, 72 h)
- condition_info: Ba/F3-HER2 A775-G776insYVMA cells
result_type: EC50

In [3]: df
Out[3]:
                                    molecule  result_type  recorded_result
 0  C#CC(=O)NC1CC(Oc2cc3c(Nc4ccc(Cl)c(Cl)c4F)ncnc3cc2OC)C1 (centres unmarked)         EC50   200 to 1000 nM
 1  C=CC(=O)NC1CC(Oc2cc3c(C(=O)NCc4ccc(F)cc4)ncnc3cc2OC)C1 (centres unmarked)         EC50        > 1000 nM
 2  C=CC(=O)N1CCC(Oc2cc3c(Nc4ccc5ccccc5c4Cl)ncnc3cc2OC)CC1         EC50        > 1000 nM
 3  C=CC(=O)N1CC(c2cc3c(Nc4ccc(OCc5ccccc5)c(Cl)c4F)ncnc3cc2OC)C1         EC50        > 1000 nM
 4  C=CC(=O)N1CCCC(c2ccc3ncnc(Nc4ccc(Cl)c(Cl)c4F)c3c2)C1 (centres unmarked)         EC50         ≤ 200 nM
 5  C=CC(=O)N[C@H]1C[C@@H](Oc2cc3c(Nc4ccc(Cl)c(Cl)c4F)ncnc3cc2NC)C1         EC50         ≤ 200 nM
 6  C=CC(=O)N1CCC(Oc2cc3c(Nc4ccc5sc(C)nc5c4)ncnc3cc2OC)CC1         EC50   200 to 1000 nM
 7  C=CC(=O)N1CCC(Oc2c(OC)cc3ncnc4c3c2NC(=O)N4c2ccc(Cl)c(Cl)c2)CC1         EC50        > 1000 nM
 8  C=CC(=O)N1CCC(Oc2c(OC)cc3ncnc4c3c2C=CN4c2ccc(Cl)c(Cl)c2F)CC1         EC50        > 1000 nM
 9  C=CC(=O)N1CCC(Oc2cc3c(NCc4ccccc4Cl)ncnc3cc2OC)CC1         EC50         ≤ 200 nM
10  C=CC(=O)N1CCC(Oc2cc3c(NCc4ccc(Cl)c(Cl)c4)ncnc3cc2OC)CC1         EC50         ≤ 200 nM
11  C=CC(=O)N1CCC(Oc2cc3c(N[C@H](C)c4ccc(F)cc4)ncnc3cc2OC)CC1         EC50        > 1000 nM
12  C=CC(=O)N1CCC(Oc2cc3c(Nc4ccc5c(ccn5C)c4)ncnc3cc2OC)CC1         EC50   200 to 1000 nM
13  C=CC(=O)N1CCC(Oc2cc3c(Nc4cccc5[nH]ccc45)ncnc3cc2OC)CC1         EC50        > 1000 nM
14  C=CC(=O)N1CCC(Oc2cc3c(Nc4cc5ccccc5cn4)ncnc3cc2OC)CC1         EC50   200 to 1000 nM
15  C=CC(=O)N1C2CCCC1CC(Oc1cc3c(Nc4ccc(Cl)c(Cl)c4F)ncnc3cc1OC)C2 (centres unmarked)         EC50         ≤ 200 nM
16  C=CC(=O)N1CCC(c2ccc3ncnc(Nc4ccc(Cl)c(Cl)c4F)c3c2)CC1         EC50   200 to 1000 nM
17  C=CC(=O)N1CCC(Oc2cc3c(C(=O)c4ccc(OC)cc4)ncnc3cc2OC)CC1         EC50        > 1000 nM
18  [2H]C([2H])([2H])Oc1cc2ncnc(Nc3ccc(Cl)c(Cl)c3F)c2cc1C1CN(C(=O)C=C)C1         EC50         ≤ 200 nM
19  C=CC(=O)N1CC(c2cc3c(Nc4ccc(F)c(Cl)c4F)ncnc3cc2OC)C1         EC50         ≤ 200 nM
20  C=CS(=O)(=O)N1CCC=C(c2ccc3ncnc(Nc4ccc(Cl)c(Cl)c4F)c3c2)C1         EC50   200 to 1000 nM
21  C=CC(=O)N1CC(c2cc3c(Nc4cccc5ccccc45)ncnc3cc2OC)C1         EC50         ≤ 200 nM
22  C=CC(=O)NC1CC(Oc2cc3c(Nc4ccc(Cl)cc4F)ncnc3cc2OC)C1 (centres unmarked)         EC50   200 to 1000 nM
23  C=C(F)C(=O)N1CC(c2cc3c(Nc4ccc(Cl)c(Cl)c4F)ncnc3cc2O[C@H]2CCOC2)C1         EC50   200 to 1000 nM
24  C#CC(=O)N1CC(c2cc3c(Nc4ccc(OCc5ccccc5)c(Cl)c4F)ncnc3cc2OC)C1         EC50        > 1000 nM
25  C=CC(=O)N1CCC(Oc2cc3c(Nc4ccc5nccnc5c4)ncnc3cc2OC)CC1         EC50        > 1000 nM

---

- target_system: Ba/F3 stable cells (Homo sapiens, UniProt P00533, DUP767-769, cells depend on it)
- Construct: EC50 Ba/F3-EGFR V769-D770insASV; other: Ba/F3-EGFR V769-D770insASV cells, 72 h, CCK-8
- Sequence (P00533 with tags, fused parts or gaps DUP767-769): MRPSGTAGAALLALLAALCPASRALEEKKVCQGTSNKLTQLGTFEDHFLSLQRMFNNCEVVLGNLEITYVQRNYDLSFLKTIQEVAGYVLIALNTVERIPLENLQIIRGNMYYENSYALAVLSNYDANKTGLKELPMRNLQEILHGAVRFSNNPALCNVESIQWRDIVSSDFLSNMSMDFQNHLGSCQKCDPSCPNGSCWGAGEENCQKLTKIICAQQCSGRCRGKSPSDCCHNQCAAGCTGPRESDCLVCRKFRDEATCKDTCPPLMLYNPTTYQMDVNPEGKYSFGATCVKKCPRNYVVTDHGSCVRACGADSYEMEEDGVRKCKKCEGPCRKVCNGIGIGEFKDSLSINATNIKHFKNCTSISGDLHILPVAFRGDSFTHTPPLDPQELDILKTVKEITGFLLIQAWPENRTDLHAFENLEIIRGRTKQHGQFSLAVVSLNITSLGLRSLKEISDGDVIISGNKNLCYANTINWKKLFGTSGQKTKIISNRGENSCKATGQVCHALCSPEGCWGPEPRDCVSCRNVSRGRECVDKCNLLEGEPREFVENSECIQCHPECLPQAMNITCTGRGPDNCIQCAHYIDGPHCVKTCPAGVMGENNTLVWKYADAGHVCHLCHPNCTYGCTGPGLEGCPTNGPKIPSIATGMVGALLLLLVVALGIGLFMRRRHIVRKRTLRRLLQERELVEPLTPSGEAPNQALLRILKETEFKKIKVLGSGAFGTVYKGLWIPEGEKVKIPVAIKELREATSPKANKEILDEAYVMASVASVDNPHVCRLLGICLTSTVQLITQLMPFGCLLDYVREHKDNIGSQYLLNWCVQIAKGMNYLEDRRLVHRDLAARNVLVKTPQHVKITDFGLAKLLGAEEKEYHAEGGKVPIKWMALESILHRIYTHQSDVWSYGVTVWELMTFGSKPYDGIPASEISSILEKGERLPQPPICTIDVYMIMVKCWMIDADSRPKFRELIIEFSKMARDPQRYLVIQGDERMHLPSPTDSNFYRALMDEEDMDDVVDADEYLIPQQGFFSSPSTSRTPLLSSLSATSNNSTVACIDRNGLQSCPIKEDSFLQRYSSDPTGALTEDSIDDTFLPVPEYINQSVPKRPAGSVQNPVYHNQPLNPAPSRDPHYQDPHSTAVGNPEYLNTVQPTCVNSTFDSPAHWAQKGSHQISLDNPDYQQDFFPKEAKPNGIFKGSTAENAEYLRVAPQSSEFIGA
- assay_details: EC50 assay: Ba/F3 stable cell proliferation (CCK-8, 72 h)
- condition_info: Ba/F3-EGFR V769-D770insASV cells
This section presents compounds with their documented EC50 values.
result_type: EC50

                                    compound                             target_system  result_type  recorded_result
 0  C=CS(=O)(=O)N1CCCC(c2ccc3ncnc(Nc4ccc(Cl)c(Cl)c4F)c3c2)C1 (stereo not drawn) [Compound 188]  Ba/F3 stable cells (Homo sapiens, UniProt P00533, DUP767-769, cells depend on it)         EC50         ≤ 200 nM
 1  C=CC(=O)N[C@H]1C[C@@H](Oc2cc3c(Nc4ccc(Cl)c(Cl)c4F)ncnc3cc2OCCN(C)C)C1 [Compound 101]  Ba/F3 stable cells (Homo sapiens, UniProt P00533, DUP767-769, cells depend on it)         EC50   200 to 1000 nM
 2  C=CC(=O)N1CCC(Oc2c(OC)cc3ncnc4c3c2C=C(C)N4c2ccc(Cl)c(Cl)c2F)CC1 [Compound 217]  Ba/F3 stable cells (Homo sapiens, UniProt P00533, DUP767-769, cells depend on it)         EC50         ≤ 200 nM
 3  C=CC(=O)N1CCC(Oc2cc3c(Nc4ccc5cccnc5c4)ncnc3cc2OC)CC1 [Compound 141]  Ba/F3 stable cells (Homo sapiens, UniProt P00533, DUP767-769, cells depend on it)         EC50   200 to 1000 nM
 4  C=CC(=O)N1CC(c2cc3c(Nc4ccc(F)c(Cl)c4F)ncnc3cc2O[C@H]2CCOC2)C1 [Compound 33]  Ba/F3 stable cells (Homo sapiens, UniProt P00533, DUP767-769, cells depend on it)         EC50         ≤ 200 nM
 5  C#CC(=O)N1C2CCCC1CC(Oc1cc3c(Nc4ccc5ccccc5c4)ncnc3cc1OC)C2 (stereo not drawn) [Compound 58]  Ba/F3 stable cells (Homo sapiens, UniProt P00533, DUP767-769, cells depend on it)         EC50         ≤ 200 nM
 6  C=CC(=O)N1CC(c2cc3c(Nc4ccc(Cl)c(Cl)c4F)ncnc3cc2OCCN2CCOCC2)C1 [Compound 28]  Ba/F3 stable cells (Homo sapiens, UniProt P00533, DUP767-769, cells depend on it)         EC50         ≤ 200 nM
 7  C=CC(=O)N1CCCC(Oc2cc3c(Nc4ccc(Cl)c(Cl)c4F)ncnc3cc2OC)C1 (stereo not drawn) [Compound 132]  Ba/F3 stable cells (Homo sapiens, UniProt P00533, DUP767-769, cells depend on it)         EC50   200 to 1000 nM
 8  C=CS(=O)(=O)NC1CC(Oc2cc3c(Nc4ccc(Cl)c(Cl)c4F)ncnc3cc2OC)C1 (stereo not drawn) [Compound 191]  Ba/F3 stable cells (Homo sapiens, UniProt P00533, DUP767-769, cells depend on it)         EC50         ≤ 200 nM
 9  C=CC(=O)N1CCC(Oc2cc3c(Nc4cc5ccccc5cn4)ncnc3cc2OC)CC1 [Compound 159]  Ba/F3 stable cells (Homo sapiens, UniProt P00533, DUP767-769, cells depend on it)         EC50   200 to 1000 nM
10  C=CC(=O)N1C2CCCC1CC(Oc1cc3c(Nc4cccc5c4CCC5)ncnc3cc1OC)C2 (stereo not drawn) [Compound 182]  Ba/F3 stable cells (Homo sapiens, UniProt P00533, DUP767-769, cells depend on it)         EC50   200 to 1000 nM
11  [2H]C([2H])([2H])Oc1cc2ncnc(Nc3ccc(Cl)c(Cl)c3F)c2cc1C1CN(C(=O)C=C)C1 [Compound 32]  Ba/F3 stable cells (Homo sapiens, UniProt P00533, DUP767-769, cells depend on it)         EC50         ≤ 200 nM

FYI, the data here is from patent US20250243171A1.
